Test: NCI Yeast Anticancer Drug Screen. Data for the mgt1 strain (AID 153)
Settings: S. cerevisiae mgt1 mutant growth inhibition; at 100.0 µM; stronger effect = higher value
About 79,000 compounds went through this panel and 15% of them were active in at least one assay; those are over-represented in the sample as a whole.
Outcome: Satisfied for growth inhibition of at least 80%; Not satisfied for anything lower.

[[record]]
compound = "O=Nc1cccnc1N=O"
label = "Satisfied"

[[record]]
compound = "CCCCOC(=O)N[C@H]1CCc2cc(OC)c(OC)c(OC)c2-c2ccc(SC)c(=O)cc21"
label = "Not satisfied"

[[record]]
compound = "CC(C)c1ccccc1NC(=O)/C(Cl)=C(\\Cl)C(=O)O"
label = "Satisfied"

[[record]]
compound = "OC(c1ccc(F)cc1)(c1ccc(F)cc1)C1CC1"
label = "Not satisfied"

[[record]]
compound = "COc1ccc(C2c3cc4c(cc3OC(C)(O)C2C)OCO4)c(OC)c1 (stereo unspecified)"
label = "Satisfied"

[[record]]
compound = "S=C(Nc1ccc(Cl)cc1)SC1CCCCC1"
label = "Satisfied"

[[record]]
compound = "COc1ccc(/C(C)=N/OC(=O)c2c(-c3ccccc3Cl)noc2C)cc1CN1CCOCC1"
label = "Satisfied"

[[record]]
compound = "O=[N+]([O-])C(=C(Sc1ccccc1)Sc1ccccc1)C(Cl)=C(Cl)Cl"
label = "Not satisfied"

[[record]]
compound = "CCC/C(Cl)=N\\OC(=O)Nc1cccc(C(F)(F)F)c1"
label = "Not satisfied"

[[record]]
compound = "Cn1c(=O)c(-c2ccccc2)c(N=[N+]=[N-])c2ccccc21"
label = "Satisfied"


---

Assay: NCI Yeast Anticancer Drug Screen. Data for the rad50EPP+ strain (AID 151)
Conditions: S. cerevisiae rad50 mutant strain, at 100.0 µM
Compounds without any hit were thinned out: in the full panel of roughly 79,000, 15% have a hit. Active and inactive are the calls of the source. No stated cut-off is given here; in the data, active means growth inhibition above about 70%; inactive means the rest.
Outcome codes: yes for active, no for inactive

[[record]]
molecule = "c1ccc2c(c1)Oc1cccc3cccc-2c13"
label = "no"

[[record]]
molecule = "CN1CCc2ccccc2C1Cc1ccccc1NC(=O)c1sc2ccccc2c1Cl (stereo not given)"
label = "yes"

[[record]]
molecule = "OC(c1ccc(F)cc1)(c1ccc(F)cc1)C1CC1"
label = "no"

[[record]]
molecule = "CCOC(=O)[C@H]1Nc2ccccc2C2c3ccccc3CC21 (stereo not given in full)"
label = "no"

[[record]]
molecule = "CC(C)C1=CC2=C[C@H](O)[C@H]3C(C)(C)CCC[C@]3(C)C2=C(O)C1=O"
label = "yes"

[[record]]
molecule = "CCOc1ccc2c(c1)c(CC(=O)O)cn2C"
label = "yes"

[[record]]
molecule = "CCCCCCCCCCCCCCC(C(=O)[O-])[n+]1ccccc1 (stereo not given)"
label = "no"

[[record]]
molecule = "Cc1ccc(S/N=C\\c2ccccc2O)cc1"
label = "no"

[[record]]
molecule = "COc1ccc(NC(=S)N/N=C(\\c2ccccc2)c2ccccn2)cc1"
label = "no"

[[record]]
molecule = "COc1ccc(/C(C)=N/OC(=O)c2c(-c3ccccc3Cl)noc2C)cc1CN1CCOCC1"
label = "no"

[[record]]
molecule = "O=CC=C(c1ccccc1)c1ccccc1"
label = "yes"

[[record]]
molecule = "C[S+](C)C1(c2ccccc2)C(=O)c2ccccc2C1=O"
label = "yes"

[[record]]
molecule = "CCc1ncnc2cc(OCC3CO3)c(OC)cc12 (stereo not given)"
label = "yes"

[[record]]
molecule = "O=C1C(=O)c2ccccc2C=C1[N+](=O)[O-]"
label = "no"

[[record]]
molecule = "COc1ccc(N=C2C(=O)Nc3ccc(Br)cc32)cc1"
label = "no"

[[record]]
molecule = "O=C1c2ccccc2C(=O)c2cc(CBr)ccc21"
label = "yes"

[[record]]
molecule = "Cc1c(C(Cc2ccccc2N(C)C(=O)/C=C\\C(=O)O)c2c[nH]c3ccccc23)c2ccccc2n1C (stereo not given)"
label = "no"

[[record]]
molecule = "CC[n+]1ccc2c(C)c3[nH]c4ccc(O)cc4c3c(C)c2c1"
label = "yes"

[[record]]
molecule = "CN(C)c1nc2sc3c(c2c(=O)o1)CCCC3"
label = "no"

[[record]]
molecule = "O=C1Nc2ccccc2/C1=C/COc1ccccc1"
label = "yes"

[[record]]
molecule = "COC(=O)c1ccc([N+](=O)[O-])c(O)c1"
label = "yes"

[[record]]
molecule = "NC(=O)NN=C(CS)CS"
label = "no"

[[record]]
molecule = "CSC(=S)Nc1cc(C)ccn1"
label = "yes"

[[record]]
molecule = "COc1ccc(/C=C2\\SC(=S)N(/C=C/c3nc4ccccc4[nH]c3=O)C2=O)cc1OC"
label = "no"

[[record]]
molecule = "Nc1nc(-c2cccnc2)cc(-c2cc(-c3cccnc3)nc(N)n2)n1"
label = "no"

